System: E. coli ATCC25922
Format: cell-based, Escherichia coli
Details: ATCC25922, 16 h
Non-standard residues stand in square brackets, D forms with d. Residues, ends and D or L forms follow the SMILES beside them.
measure: MIC in the presence of KCl (µM)
The figure you give is taken to be in µM; do not add the unit.

q: Request body: readout MIC in the presence of KCl, system E. coli ATCC25922, query CC[C@H](C)[C@H](N)C(=O)N[C@H](C(=O)N[C@@H](CCCNC(=N)N)C(=O)N[C@H](C(=O)N[C@H](C(=O)N[C@@H](CCCNC(=N)N)C(=O)N[C@@H](CCCNC(=N)N)C(=O)N1CCC[C@@H]1C(=O)NCC(=O)N[C@@H](CCCNC(=N)N)C(=O)N[C@@H](CCCNC(=N)N)C(=O)N[C@H](C(=O)N[C@H](C(=O)N[C@@H](CCCNC(=N)N)C(=O)N[C@H](C(=O)N[C@H](C(N)=O)[C@@H](C)CC)[C@@H](C)CC)[C@@H](C)CC)[C@@H](C)CC)[C@@H](C)CC)[C@@H](C)CC)[C@@H](C)CC [IRpG] (H-IIRIIRR[dP]GRRIIRII-NH2) . Return the value.
a: 4

q: Check CC(C)C[C@H](NC(=O)CN)C(=O)N[C@@H](CCCNC(=N)N)C(=O)N[C@@H](CC(C)C)C(=O)N[C@@H](CC(C)C)C(=O)N[C@@H](CCCNC(=N)N)C(=O)N[C@@H](CCCNC(=N)N)C(=O)N[C@@H](CC(C)C)C(=O)N[C@@H](CC(C)C)C(=O)N[C@@H](CCCNC(=N)N)C(=O)N[C@@H](CCCNC(=N)N)C(=O)N[C@@H](CC(C)C)C(=O)N[C@@H](CC(C)C)C(=O)N[C@@H](CCCNC(=N)N)C(=O)N[C@@H](CC(C)C)C(=O)N1CCC[C@@H]1C(N)=O [LRα] (H-GLRLLRRLLRRLLRL[dP]-NH2) too.
a: 2

q: Would you mind doing N=C(N)NCCC[C@H](NC(=O)CNC(=O)[C@H]1CCCN1C(=O)[C@H](CCCNC(=N)N)NC(=O)[C@H](CCCNC(=N)N)NC(=O)[C@H](Cc1ccccc1)NC(=O)[C@H](Cc1ccccc1)NC(=O)[C@H](CCCNC(=N)N)NC(=O)[C@H](Cc1ccccc1)NC(=O)[C@@H](N)Cc1ccccc1)C(=O)N[C@@H](CCCNC(=N)N)C(=O)N[C@@H](Cc1ccccc1)C(=O)N[C@@H](Cc1ccccc1)C(=O)N[C@@H](CCCNC(=N)N)C(=O)N[C@@H](Cc1ccccc1)C(=O)N[C@@H](Cc1ccccc1)C(N)=O [FRpG] (H-FFRFFRR[dP]GRRFFRFF-NH2) as well?
a: 8
